System: MDA-MB-231 (breast, adenocarcinoma) cells
Test: Cell viability assay, CellTiter-Glo (Example 21)
Assay type: cell-based, human
Conditions: 3.7 nM, 72 h treatment
Protocol: Effect of the selected compounds on cancer cell viability was measured via CellTiter-Glo® luminescent cell viability assay (Promega, Madison, WI, USA) according to the manufacturer's instructions. Cells were plated onto a flat-bottomed, white 96 well plate (BRANDplates®, cat. no.: 781965). […] After the treatment, the luminescence signal was recorded using a microplate reader (BioTek Synergy 2 Multi-Mode Reader, BioTek, Winooski, VT, USA). […]
assay.metric: MDA-MB-231 (breast, adenocarcinoma) cell viability (% of control)

{"columns": ["molecule", "result"],
 "data": [
  ["O=C1C2=C(CCN(Cc3cc(F)cc(F)c3)C2)N2CCN=C2N1Cc1ccc(Cl)cc1 [I/124]", "82.4 ± 7.2 % of control"],
  ["[N-]=[N+]=Nc1cccc(CN2CCC3=C(C2)C(=O)N(Cc2ccc(Cl)cc2)C2=NCCN23)c1 [I/133]", "101.4 ± 2.0 % of control"],
  ["O=C1C2=C(CCN(Cc3cccc(F)c3)C2)N2CCN=C2N1Cc1ccc(C(F)(F)F)cc1 [I/3, reference compound]", "101.4 ± 1.4 % of control"],
  ["O=C1C2=C(CCN(Cc3cccc(F)c3)C2)N2CCN=C2N1Cc1ccc(F)cc1 [I/6, reference compound]", "100.5 ± 5.4 % of control"],
  ["O=C1C2=C(CCN(Cc3cc(F)cc(F)c3)C2)N2CCN=C2N1Cc1ccc(C(F)(F)F)cc1 [I/30]", "100.0 ± 4.5 % of control"],
  ["O=C1C2=C(CCN(Cc3ccccc3)C2)N2CCN=C2N1Cc1ccc(C(F)(F)F)cc1 [I/1, reference compound]", "101.0 ± 4.4 % of control"],
  ["O=C1C2=C(CCN(Cc3cc(F)cc(F)c3)C2)N2CCN=C2N1Cc1ccc(F)cc1 [I/7]", "99.6 ± 2.2 % of control"],
  ["[N-]=[N+]=Nc1ccc(CN2C(=O)C3=C(CCN(Cc4cc(F)cc(F)c4)C3)N3CCN=C23)cc1 [I/107]", "102.1 ± 3.5 % of control"],
  ["[N-]=[N+]=Nc1cccc(CN2CCC3=C(C2)C(=O)N(Cc2ccc(C(F)(F)F)cc2)C2=NCCN23)c1 [I/111]", "102.7 ± 2.8 % of control"]
]}
